# target-system: T1, integrin β1 (standard of an integrin β1 ELISA kit) (UniProt P05556 21-728)
# T1 construct: integrin β1 (ITGB1), standard protein of a commercial ELISA kit; also called ITGB1; integrin β1 standards; source: bought: standard of the integrin β1 ELISA kit, Shanghai Westang Bio-Tech CO., LTD
# T1 sequence (P05556 21-728): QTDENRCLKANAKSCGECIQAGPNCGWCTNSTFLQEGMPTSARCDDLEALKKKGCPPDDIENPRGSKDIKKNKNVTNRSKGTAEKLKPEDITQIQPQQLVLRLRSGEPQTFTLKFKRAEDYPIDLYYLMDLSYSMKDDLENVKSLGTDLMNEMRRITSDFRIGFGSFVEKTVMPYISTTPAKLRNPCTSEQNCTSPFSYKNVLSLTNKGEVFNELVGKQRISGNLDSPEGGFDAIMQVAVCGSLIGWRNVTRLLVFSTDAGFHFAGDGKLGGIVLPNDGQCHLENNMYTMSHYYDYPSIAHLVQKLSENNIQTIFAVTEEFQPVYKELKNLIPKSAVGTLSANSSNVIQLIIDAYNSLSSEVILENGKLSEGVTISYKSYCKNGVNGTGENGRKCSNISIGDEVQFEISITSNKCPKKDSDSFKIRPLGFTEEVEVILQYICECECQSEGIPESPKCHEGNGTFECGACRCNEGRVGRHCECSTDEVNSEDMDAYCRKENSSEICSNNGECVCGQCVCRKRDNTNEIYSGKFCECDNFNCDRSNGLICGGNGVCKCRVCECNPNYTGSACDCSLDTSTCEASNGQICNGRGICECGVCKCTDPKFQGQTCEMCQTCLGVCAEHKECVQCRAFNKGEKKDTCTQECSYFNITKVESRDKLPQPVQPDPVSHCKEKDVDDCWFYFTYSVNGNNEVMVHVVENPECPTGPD
# test-method-notes: ELISA; integrin β1 standards (0.5 µg/mL) added to the microplate wells of an integrin β1 ELISA kit, in triplicate; R11-TRITC serially diluted in PBS (0.001-10 000 nM), 2 h at 37 °C; washed; fluorescence of the bound peptide read on a microplate reader
# condition-set: both partners purified
Ends that are not written are not given here.
endpoint-label: pEC50
Answers are plain numbers, as −log10 of the molar value.

## Input Item GRRRRRRRRRRR-{TRITC} (designed cell-penetrating peptide: glycine followed by 11 arginines; also called R11 peptides; arginine-rich peptides; source: synthetic peptide, synthesized and purified by GL Biochem Ltd (Shanghai, China)) [hendeca-arginine peptide (R11), GRRRRRRRRRRR-TRITC] has what recorded pEC50?
## Output 8.22
